System: HT29 colon
Experiment: NCI-60 one-dose screen, 48 h (100 = growth as untreated, 0 = no growth, -100 = all killed)
Details: 10 µM unless noted
Compounds without any hit were thinned out: in the full panel of roughly 83,000, 20% have a hit. Activity calls are given as the source filed them. How the source made its calls: active means growth percent below 10; inactive means the rest.
QUANTITY_NAME: growth

INPUT: Could you share which growth value was measured for CC1(C)CC(=O)C2=C(C1)C(c1ccc(Cl)cc1)n1ncc(C#N)c1N2 (stereo unspecified) ?
OUTPUT: 106% (inactive)

INPUT: Another compound to look at: CN1CCOCCN(C)Cc2ccc3ccc(cc3c2)CN(C)CCOCCN(C)Cc2ccc3ccc(cc3c2)C1
OUTPUT: 7.33% (active)

INPUT: Another compound to look at: O=C(c1ccc(Br)cc1)C(Br)C(c1ccc(Cl)cc1)C(c1ccccc1)[N+](=O)[O-] (stereo unspecified)
OUTPUT: 87.3% (inactive)

INPUT: Another compound to look at: COc1cc(/C=C/c2cn[nH]c2-c2ccc(C)cc2)cc(OC)c1OC
OUTPUT: 6.79% (active)

INPUT: Another compound to look at: O=C1CCCC1[n+]1ccccc1 (stereo unspecified)
OUTPUT: 61.4% (inactive)

INPUT: Another compound to look at: O=C1CCCCN1c1ccc(C2=NCCCN2)cc1
OUTPUT: 87.6% (inactive)

INPUT: Another compound to look at: O=C(/C=C/c1ccccc1Cl)c1cccc(OCCCCOc2cccc(C(=O)/C=C/c3ccccc3Cl)c2)c1
OUTPUT: 96.9% (inactive)

INPUT: Another compound to look at: N#Cc1ccc(O)c(C2=NCC(c3ccc(-c4ccccc4)cc3)O2)c1 (stereo unspecified)
OUTPUT: 18.1% (inactive)

INPUT: Another compound to look at: Nc1nc2ccccc2c2c(=O)c3cc(Cl)ccc3sc12
OUTPUT: 102% (inactive)

INPUT: Another compound to look at: CN(C)CCCC1(c2ccc(F)cc2)OCc2cc(-c3csc4ccccc34)ccc21 (stereo unspecified)
OUTPUT: -29.2% (active)

INPUT: Another compound to look at: O=C1/C(=C/c2cccc(Br)c2)COc2ccc(O)cc21
OUTPUT: 15% (inactive)

INPUT: Another compound to look at: CCCCO[C@@H]1C=C2[C@H]3CC(C)(C)C(=O)C[C@]3(C(=O)O[C@@H]3O[C@H](CO[C@@H]4O[C@H](CO)[C@@H](OC5OC(C)C(O)C(O)C5O)[C@H](O)[C@H]4O)[C@@H](O)[C@H](O)[C@H]3O)CC[C@@]2(C)[C@]2(C)CC[C@H]3C(C)(C)C(=O)CC[C@]3(C)[C@@H]12 (stereo partly specified)
OUTPUT: 43.2% (inactive)

Values were extracted from PubChem BioAssay (NCI).
